Hello, the source for this data is BigSolDB 2.1, in case you need it.

Conditions: in n-propanol, 303.15 K

COMPOUND	solubility (mole fraction)
CCCCN1CCCCC1C(=O)Nc1c(C)cccc1C.Cl (stereo unspecified)	0.0084

====

Settings: in n-propanol, 293.15 K
EXPERIMENTAL_READOUT: solubility (mole fraction)

COMPOUND	MEASURED_RESULT
CCCCN1CCCCC1C(=O)Nc1c(C)cccc1C.Cl (stereo unspecified)	0.0051

====

Details: in DMF, 303.15 K

COMPOUND	solubility (mole fraction)
CCCCN1CCCCC1C(=O)Nc1c(C)cccc1C.Cl (stereo unspecified)	0.0062

====

Details: in n-propanol, 308.15 K

COMPOUND	solubility (mole fraction)
CCCCN1CCCCC1C(=O)Nc1c(C)cccc1C.Cl (stereo unspecified)	0.0101

====

Conditions: in DMF, 298.15 K

COMPOUND	solubility (mole fraction)
CCCCN1CCCCC1C(=O)Nc1c(C)cccc1C.Cl (stereo unspecified)	0.0049

====

Details: in methanol, 318.15 K

COMPOUND	solubility (mole fraction)
CCCCN1CCCCC1C(=O)Nc1c(C)cccc1C.Cl (stereo unspecified)	0.0295

====

Conditions: in acetic acid, 298.15 K

COMPOUND	solubility (mole fraction)
CCCCN1CCCCC1C(=O)Nc1c(C)cccc1C.Cl (stereo unspecified)	0.0367

====

Details: in acetic acid, 323.15 K

COMPOUND	solubility (mole fraction)
CCCCN1CCCCC1C(=O)Nc1c(C)cccc1C.Cl (stereo unspecified)	0.0879

====

Conditions: in n-butanol, 313.15 K
EXPERIMENTAL_READOUT: solubility (mole fraction)

MOLECULE	MEASURED_RESULT
CCCCN1CCCCC1C(=O)Nc1c(C)cccc1C.Cl (stereo unspecified)	0.0198

====

Details: in acetic acid, 313.15 K

MOLECULE	solubility (mole fraction)
CCCCN1CCCCC1C(=O)Nc1c(C)cccc1C.Cl (stereo unspecified)	0.0601

====

Details: in DMF, 333.15 K

MOLECULE	solubility (mole fraction)
CCCCN1CCCCC1C(=O)Nc1c(C)cccc1C.Cl (stereo unspecified)	0.0172

====

Conditions: in methanol, 313.15 K
EXPERIMENTAL_READOUT: solubility (mole fraction)

COMPOUND	MEASURED_RESULT
CCCCN1CCCCC1C(=O)Nc1c(C)cccc1C.Cl (stereo unspecified)	0.0249

====

Details: in water, 323.15 K

MOLECULE	solubility (mole fraction)
CCCCN1CCCCC1C(=O)Nc1c(C)cccc1C.Cl (stereo unspecified)	0.0032

====

Conditions: in isopropanol, 313.15 K
EXPERIMENTAL_READOUT: solubility (mole fraction)

COMPOUND	EXPERIMENTAL_READOUT	MEASURED_RESULT
CCCCN1CCCCC1C(=O)Nc1c(C)cccc1C.Cl (stereo unspecified)	solubility (mole fraction)	0.0037

====

Conditions: in DMF, 318.15 K
EXPERIMENTAL_READOUT: solubility (mole fraction)

COMPOUND	MEASURED_RESULT
CCCCN1CCCCC1C(=O)Nc1c(C)cccc1C.Cl (stereo unspecified)	0.0117

====

Settings: in water, 333.15 K

COMPOUND	solubility (mole fraction)
CCCCN1CCCCC1C(=O)Nc1c(C)cccc1C.Cl (stereo unspecified)	0.0041

====

Conditions: in n-butanol, 303.15 K
EXPERIMENTAL_READOUT: solubility (mole fraction)

MOLECULE	MEASURED_RESULT
CCCCN1CCCCC1C(=O)Nc1c(C)cccc1C.Cl (stereo unspecified)	0.0142
